Where these numbers come from: PubChem BioAssay AID1259407

Test system: CCRIS mutagenicity, Ames/micronucleus/aberration tests
assay-remarks: CCRIS mutagenicity studies
condition-summary: Test System: E. COLI B; Strain/Indicator: H/R30R; Metabolic Activation: NONE
Active and inactive are the calls of the source. No rule for the calls is given here.
result-type: mutagenic call

compound-structure-string: NC(=O)N(CCF)N=O
result: active; positive
//
compound-structure-string: CC(C)CN(N=O)C(N)=O
result: active; positive
//
compound-structure-string: CCCN(N=O)C(N)=O
result: active; positive
//
compound-structure-string: NC(=O)N(CC(=O)O)N=O
result: active; positive

---

Test system: CCRIS mutagenicity, Ames/micronucleus/aberration tests
assay-remarks: CCRIS mutagenicity studies
condition-summary: Test System: AMES SALMONELLA TYPHIMURIUM; Strain/Indicator: TA1537; Metabolic Activation: RAT, LIVER, S-9, AROCLOR 1254 (10%); Method: PREINCUBATION
Calls of active or inactive are those of the source. The rule behind the calls is not given here.
Outcomes: active, inactive

compound: Cc1ccc(C(C)(C)C)cc1
label-class: inactive
--
compound: ClCC(Br)CBr (configuration not stated)
label-class: inactive
--
compound: ClCC(Cl)Cl
label-class: inactive
--
compound: CCOCCO
label-class: inactive
--
compound: C[CH2][Pb]([Cl])([CH2]C)[CH2]C
label-class: inactive
--
compound: COc1cc2c(cc1OC)[C@@]13CCN4CC5=CCO[C@H]6CC(=O)N2[C@H]1[C@H]6[C@H]5C[C@H]43
label-class: inactive
--
compound: OCC(Br)CBr (configuration not stated)
label-class: inactive
--
compound: O=C(Cl)c1ccc([N+](=O)[O-])cc1
label-class: active
--
compound: CN(C)C
label-class: inactive
--
compound: OCCOCCO
label-class: inactive
--
compound: O=C(O)CS
label-class: inactive
--
compound: CC(C)CC(C)N (configuration not stated)
label-class: inactive
--
compound: O=C1CCC(=O)O1
label-class: inactive
--
compound: C/C(C=O)=C\c1ccccc1
label-class: inactive
--
compound: c1ccc2c(c1)Nc1ccccc1S2
label-class: inactive
--
compound: Cc1ccc(N=Nc2c(O)ccc3ccccc23)c([N+](=O)[O-])c1
label-class: inactive
--
compound: CC(C)N
label-class: inactive
--
compound: C=CC(=O)OCCOCCOCCOCCOC(=O)C=C
label-class: inactive
--
compound: O=C1OC(c2ccc(O)cc2)(c2ccc(O)cc2)c2ccccc21
label-class: inactive
--
compound: CCCCC(CC)COC(=O)c1ccccc1C(=O)O (configuration not stated)
label-class: inactive
--
compound: O=C1OC(=O)c2cc([N+](=O)[O-])ccc21
label-class: active
--
compound: C=C(C)C(=O)OCCC
label-class: inactive
--
compound: C/C=C1\CC2C=CC1C2 (configuration not stated)
label-class: inactive
--
compound: COc1cc(-c2ccc(N/N=C3\C=C(S(=O)(=O)O)c4ccccc4C3=O)c(OC)c2)ccc1N/N=C1/C=C(S(=O)(=O)O)c2ccccc2C1=O
label-class: inactive
--
compound: Nc1cc(S(=O)(=O)[O-])cc2c1C(=O)/C(=N\Nc1ccc(-c3ccc(N/N=C4\C(=O)c5c(N)cc(S(=O)(=O)[O-])cc5C=C4S(=O)(=O)[O-])c(O)c3)cc1O)C(S(=O)(=O)[O-])=C2.[Cu].[Cu].[Na+].[Na+].[Na+].[Na+]
label-class: inactive
--
compound: NC1CCC(CC2CCC(N)CC2)CC1 (configuration not stated)
label-class: inactive
--
compound: NCCNCCNCCNCCN
label-class: inactive
--
compound: [O]=[Cd]
label-class: inactive
--
compound: CN(C)CCOC(C)(c1ccccc1)c1ccccn1 (configuration not stated)
label-class: inactive
--
compound: Cc1ccccc1C=O
label-class: inactive
--
compound: CCCCCN(CCCCC)CCCCC
label-class: inactive
--
compound: C=C(C)C(=O)OCCCCCCCC
label-class: inactive
--
compound: O=C1c2ccccc2C(=O)C1(O)O
label-class: inactive
--
compound: CN(C)CCN(C)C
label-class: inactive
--
compound: CCCCCCOC(=O)c1ccccc1C(=O)OCCCCCC
label-class: inactive
--
compound: CC(N)CN (configuration not stated)
label-class: inactive
--
compound: CN(C)CCCN
label-class: inactive

---

System: CCRIS mutagenicity, Ames/micronucleus/aberration tests
assay-remarks: CCRIS mutagenicity studies
condition-summary: Test System: AMES SALMONELLA TYPHIMURIUM; Strain/Indicator: TA1535; Metabolic Activation: NONE; Method: STANDARD PLATE
Calls of active or inactive are those of the source. How the calls were made is not given here.
Outcomes: 1 for active, -1 for inactive

molecule: O=c1[nH]cc(N(CCCl)CCCl)c(=O)[nH]1
label-class: 1
//
molecule: COc1cccc2c(NCCCNCCCl)c3ccccc3nc12
label-class: -1
//
molecule: C[C@]12CC[C@H](OC(=O)Cc3ccc(N(CCCl)CCCl)cc3)C[C@@H]1CC[C@@H]1[C@@H]2CC[C@]2(C)NC(=O)CC[C@@H]12
label-class: 1
//
molecule: Oc1cccc2cc3cccc(O)c3c(O)c12
label-class: -1
//
molecule: [Pb]
label-class: -1
//
molecule: O=C1C=C[C@]2(O)c3c(ccc(O)c31)-c1ccc(O)c3c1[C@H]2C1OC1C3=O (stereo partly specified)
label-class: -1

---

Tested on: CCRIS mutagenicity, Ames/micronucleus/aberration tests
assay-remarks: CCRIS mutagenicity studies
condition-summary: Test System: AMES SALMONELLA TYPHIMURIUM; Strain/Indicator: TA102; Metabolic Activation: NONE; Method: STANDARD PLATE
From the text: The CCRIS database contains chemical records with carcinogenicity, mutagenicity, tumor promotion, and tumor inhibition test results. It was developed by the National Cancer Institute (NCI). Data are derived from studies cited in primary journals, current awareness tools, NCI reports, and other sources. Test results have been reviewed by experts in carcinogenesis and mutagenesis. CCRIS provides historical information from the years 1985 - 2011. It is no longer updated. […]
Active and inactive are the calls of the source. How the calls were made is not given here.
Outcomes: Yes for active, No for inactive

compound: CC(C)[C@@H]1CC[C@@H](C)C[C@H]1O
label-class: No
//
compound: C[n+]1c2ccccc2nc2ccccc21
label-class: No
//
compound: Cc1c(N)c(=O)n(-c2ccccc2)n1C
label-class: No
//
compound: CCN(N)c1ccccc1
label-class: No
//
compound: COCC=O
label-class: No
//
compound: O=C1c2ccccc2CN2C(=O)c3ccccc3CN12
label-class: No
//
compound: CCOC(=O)C1(CCCCCCOCc2cccs2)CO1 (stereo unspecified)
label-class: No
//
compound: Cc1cc2nc3ccc(=[N+](C)C)cc-3sc2cc1N
label-class: No
//
compound: O=c1cc(-c2ccc(O)cc2)oc2cc(O)cc(O)c12
label-class: No
//
compound: CC(C)(C)NC(=O)[C@H]1CC[C@H]2[C@@H]3CC=C4C=C(C(=O)O)CC[C@]4(C)[C@H]3CC[C@]12C
label-class: No
//
compound: CS(=N)(=O)CCC(N)C(=O)O (stereo unspecified)
label-class: No
//
compound: CN(N=O)C(=O)c1c(N(C)N=O)ncn1C
label-class: Yes
//
compound: c1ccccc1
label-class: No
//
compound: O=S(c1cc(Cl)cc(Cl)c1O)c1cc(Cl)cc(Cl)c1O
label-class: No
//
compound: CC(C)(c1ccc(OP(O)O)cc1)c1ccc(OP(O)O)cc1
label-class: No
//
compound: CC(Br)Br
label-class: No
//
compound: CCCC[C@@H](C)[C@@H](OC(=O)C[C@@H](CC(=O)O)C(=O)O)[C@H](C[C@@H](C)CCCCCC[C@@H](O)C[C@H](O)[C@H](C)N)OC(=O)C[C@@H](CC(=O)O)C(=O)O
label-class: No
//
compound: Oc1cccc(O)c1O
label-class: Yes
//
compound: N/C(=N\O)c1cc(O)c(O)c(O)c1
label-class: No
//
compound: Cc1cc(Cl)ccc1OC(C)C(=O)O (stereo unspecified)
label-class: No
//
compound: CCc1cc(C(C)(C)C)c(O)c(C(C)(C)C)c1
label-class: No
//
compound: Fc1ccccn1
label-class: No
//
compound: CCC1(c2ccccc2)C(=O)NC(=O)NC1=O
label-class: No
//
compound: CC(=O)CC(=O)Nc1ccc(C)cc1
label-class: No
//
compound: CN(C)C(=O)c1nc2n(n1)-c1ccc(Cl)cc1C(c1ccccc1Cl)=NC2
label-class: No
//
compound: CC12CCC(=O)NC1=CCC1C2CCC2(C)C(OC(=O)CCCc3ccc(N(CCCl)CCCl)cc3)CCC12 (stereo unspecified)
label-class: No

---

System: CCRIS mutagenicity, Ames/micronucleus/aberration tests
assay-remarks: CCRIS mutagenicity studies
condition-summary: Test System: AMES SALMONELLA TYPHIMURIUM; Strain/Indicator: TA104; Metabolic Activation: RAT, LIVER, S-9, AROCLOR 1254; Method: STANDARD PLATE
Calls of active or inactive are those of the source. The rule behind the calls is not given here.
Outcomes: class 1 (active), class 0 (inactive)

compound-structure-string: Cc1c(N)c(=O)n(-c2ccccc2)n1C
label-class: class 0
//
compound-structure-string: O=CN(O)c1ccc(Cl)c(Cl)c1
label-class: class 0
//
compound-structure-string: CN=C1C=CC(=C(c2ccc(N(C)C)cc2)c2ccc(N(C)C)cc2)C=C1
label-class: class 0
//
compound-structure-string: CN(C)c1ccc(C(=C2C=CC(=N)C=C2)c2ccc(N(C)C)cc2)cc1
label-class: class 0
//
compound-structure-string: S=C1NCCN1
label-class: class 0
//
compound-structure-string: C[C@]12CC[C@H](OC(=O)Cc3ccc(N(CCCl)CCCl)cc3)C[C@@H]1CC[C@@H]1[C@@H]2CC[C@]2(C)NC(=O)CC[C@@H]12
label-class: class 0
//
compound-structure-string: Cc1cc(O)ccc1Cl
label-class: class 0
//
compound-structure-string: CC(=O)O[C@H]1CC[C@@]2(C)C(=CC[C@H]3[C@@H]4CC[C@H]([C@H](C)CCCC(C)C)[C@@]4(C)CC[C@@H]32)C1
label-class: class 0
//
compound-structure-string: Cc1cc(Cl)ccc1O
label-class: class 0
//
compound-structure-string: ClCC(Cl)Cl
label-class: class 1
//
compound-structure-string: Cc1ccc2ccc3c(ccc4c5cccc(C)c5ccc43)c2c1
label-class: class 0
//
compound-structure-string: Cc1c(N=O)c(=O)n(-c2ccccc2)n1C
label-class: class 1
//
compound-structure-string: CC(C)(Cl)Cl
label-class: class 0
